assay: yeast display, Sf9 membrane polyspecificity reagent, FACS + sequencing; frameworks hold sequencing errors
EXPERIMENTAL_ENDPOINT: polyreactivity (PSR sort gate)

[[record]]
seq_text = "QVQLVESGGCLVQAGGSLRLSCAASGRIFAYNAMGWYRQAPGKESELVAAITRGGSTNYADSVKGRFTISRDNAKNTVYLQMNSLKPEDTAVYYCAARRVDTRVHVRYRYYYWGQGTQVTVSS"
experimental_endpoint = "polyreactivity (PSR sort gate)"
value = "high polyreactivity"

[[record]]
seq_text = "QVQLVESGGGLVQAGGSLRLSCAASGSTFYRNAMGWYRQAPGKERELVATISTGGVSTYYADSVKGRFTISRDNAKNTVYLQMNSLKPEDTAVYYCAKRTVYLSNLDYWGQGTQVTLSS"
experimental_endpoint = "polyreactivity (PSR sort gate)"
value = "low polyreactivity"

[[record]]
seq_text = "QVQLVESGGGLVQAGGTLRLSCAASGFIFGYNAMGWYRQAPGKERELVARINSGGNTNYADSVKGLFSISRDNAKNTVYLLMNSLKPEDTAVYYCARDASNRYDYWRQGTQVTVSS"
experimental_endpoint = "polyreactivity (PSR sort gate)"
value = "low polyreactivity"

[[record]]
seq_text = "QVQLVESGGGLVQTGGSLRLSCAASGRILYTNAMGWYRQAPGKERELVAAISSGGRTTYADSVKGRFTISRDNAKNTVYLQMNSLKPEDTAVYYCAAGIRIYGTKRSRGYGYWGQGTQVTVSS"
experimental_endpoint = "polyreactivity (PSR sort gate)"
value = "high polyreactivity"


Now look at this one.
Quick check: polyreactivity (PSR sort gate) of QVQLVESGGGLVQAGGSLRLSCAASGRILYIYAMGWYRQAPGKERELVAAIRSSGGSTYYADSVKGRFTISRDNAKNTVYFQMNSLKPEDTAVYYCAAPDFPKYYPTAYLQADEYWGQGTQVTVSS ? high polyreactivity
